molecular target: cAMP-dependent protein kinase (PKA) (Homo sapiens, UniProt P22694+P17612+P22612); assay: Inhibitory activity against Protein kinase A (Histone); format: protein assay
propertyLabel: log10(IC50) (log10 of the value in µM)

1. COc1ccc2c3c4c(c5c(ccc6ccn(C)c65)c3n(CCCN3CCN(C)CC3)c2c1)C(=O)NC4=O :: 0.47
2. O=C1NC(=O)c2c1c1c(ccc3cc[nH]c31)c1[nH]c3cc(O)ccc3c21 :: -0.02
3. CN1CCN(CCCc2cccc3c2[nH]c2c4ccc5ccn(C)c5c4c4c(c32)C(=O)NC4=O)CC1 :: 1.22
4. COc1ccc2c3c4c(c5c(ccc6ccn(C)c65)c3n(CCCN3CCC(C(N)=O)CC3)c2c1)C(=O)NC4=O :: 0.53
5. CCN(CC)CCCc1cccc2c1[nH]c1c3ccc4ccn(C)c4c3c3c(c21)C(=O)NC3=O :: 1.15
6. Cn1ccc2ccc3c4[nH]c5c(CCNCCO)cccc5c4c4c(c3c21)C(=O)NC4=O :: 0.79
7. Cc1cc2ccn(C)c2c2c3c(c4c5ccccc5n(CCCCO)c4c12)C(=O)NC3=O :: 1.07
8. Cn1ccc2ccc3c4[nH]c5cc(OCc6ccccc6)ccc5c4c4c(c3c21)C(=O)NC4=O :: 0.52
9. Cn1ccc2ccc3c4[nH]c5c(CCCN[C@H]6CC[C@H](O)CC6)cccc5c4c4c(c3c21)C(=O)NC4=O :: 0.47

----------
target: Cyclin-dependent kinase 4/cyclin D1 (Homo sapiens, UniProt P11802); test: Inhibitory activity against Cyclin D1-cyclin-dependent kinase 4 in enzymatic assay by measuring phosphorylation of RbING; format: protein-complex assay
Sequence (P11802 whole entry): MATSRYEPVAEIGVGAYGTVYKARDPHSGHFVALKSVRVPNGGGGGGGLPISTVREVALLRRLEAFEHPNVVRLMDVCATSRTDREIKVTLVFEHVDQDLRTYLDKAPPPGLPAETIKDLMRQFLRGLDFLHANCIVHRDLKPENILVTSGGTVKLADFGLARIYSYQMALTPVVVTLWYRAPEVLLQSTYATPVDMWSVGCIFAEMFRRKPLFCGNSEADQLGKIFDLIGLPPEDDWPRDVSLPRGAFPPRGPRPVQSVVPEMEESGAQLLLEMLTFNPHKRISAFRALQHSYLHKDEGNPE
Sequence (P24385 whole entry, further chain): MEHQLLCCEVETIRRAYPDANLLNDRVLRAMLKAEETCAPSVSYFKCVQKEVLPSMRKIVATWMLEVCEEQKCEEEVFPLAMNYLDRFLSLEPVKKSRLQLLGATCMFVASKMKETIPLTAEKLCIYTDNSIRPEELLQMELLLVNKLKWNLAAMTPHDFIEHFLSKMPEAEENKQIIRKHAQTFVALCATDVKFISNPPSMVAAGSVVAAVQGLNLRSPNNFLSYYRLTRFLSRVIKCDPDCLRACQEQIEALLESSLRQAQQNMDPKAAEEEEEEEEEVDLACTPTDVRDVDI
# if measured IC50 < 70 nM: y  # else: n

1) Cn1ccc2ccc3c4[nH]c5ccccc5c4c4c(c3c21)C(=O)NC4=O :: y
2) COc1ccc2c3c4c(c5c(ccc6ccn(C)c65)c3n(CCCN3CCC(C(N)=O)CC3)c2c1)C(=O)NC4=O :: n
3) Cn1ccc2ccc3c4[nH]c5cc(OCc6ccccc6)ccc5c4c4c(c3c21)C(=O)NC4=O :: n
4) Cn1ccc2cc(F)c3c4[nH]c5ccccc5c4c4c(c3c21)C(=O)NC4=O :: y
5) COc1cc2c3[nH]c4ccccc4c3c3c(c2c2c1ccn2C)C(=O)NC3=O :: y
6) COc1ccc2c3c4c(c5c(ccc6ccn(C)c65)c3n(CCCO)c2c1)C(=O)NC4=O :: y
7) Cn1ccc2ccc3c4[nH]c5cc(F)ccc5c4c4c(c3c21)C(=O)NC4=O :: y
8) Cn1ccc2ccc3c4[nH]c5c(CCN6CCSCC6)cccc5c4c4c(c3c21)C(=O)NC4=O :: n
9) CCOc1ccc2c(c1)[nH]c1c3ccc4ccn(C)c4c3c3c(c21)C(=O)NC3=O :: y
10) COc1ccc2c3c4c(c5c(ccc6ccn(C)c65)c3n(CCN3CCCCC3)c2c1)C(=O)NC4=O :: n
11) Cc1cc2ccn(C)c2c2c3c(c4c5ccccc5n(CCCO)c4c12)C(=O)NC3=O :: n
12) COc1ccc2c3c4c(c5c(ccc6ccn(C)c65)c3n(CCNCCO)c2c1)C(=O)NC4=O :: y
13) Cn1ccc2ccc3c4[nH]c5cccc(Br)c5c4c4c(c3c21)C(=O)NC4=O :: n
14) COc1cc2ccn(C)c2c2c3c(c4c5ccccc5[nH]c4c12)C(=O)NC3=O :: y
15) Cn1ccc2ccc3c4[nH]c5cccc(CO)c5c4c4c(c3c21)C(=O)NC4=O :: n
16) CN1CCN(CCCc2cccc3c2[nH]c2c4ccc5ccn(C)c5c4c4c(c32)C(=O)NC4=O)CC1 :: y
17) Cc1cc2ccn(C)c2c2c3c(c4c5ccc(C(F)(F)F)cc5[nH]c4c12)C(=O)NC3=O :: n
18) Cn1ccc2ccc3c4[nH]c5c(CCCN[C@H]6CC[C@H](O)CC6)cccc5c4c4c(c3c21)C(=O)NC4=O :: y
19) Cc1cc2ccn(C)c2c2c3c(c4c5ccccc5[nH]c4c12)C(=O)NC3=O :: y
20) Cn1ccc2ccc3c4[nH]c5c(CCN6CCCCC6)cccc5c4c4c(c3c21)C(=O)NC4=O :: y
21) Cn1ccc2ccc3c4[nH]c5c(CCN6CCOCC6)cccc5c4c4c(c3c21)C(=O)NC4=O :: y
22) Cn1ccc2ccc3c4[nH]c5ccc(Br)cc5c4c4c(c3c21)C(=O)NC4=O :: n
23) Cn1ccc2ccc3c4[nH]c5ccc(C(F)(F)F)cc5c4c4c(c3c21)C(=O)NC4=O :: n
24) COc1cccc2[nH]c3c4ccc5ccn(C)c5c4c4c(c3c12)C(=O)NC4=O :: n
25) CCN(CC)CCCc1cccc2c1[nH]c1c3ccc4ccn(C)c4c3c3c(c21)C(=O)NC3=O :: y
26) Cn1ccc2ccc3c4[nH]c5c(CCCO)cccc5c4c4c(c3c21)C(=O)NC4=O :: n
27) Cn1ccc2ccc3c4[nH]c5c(CCN6CCC(O)CC6)cccc5c4c4c(c3c21)C(=O)NC4=O :: y
